- assay procedure: NOVARTIS: Cytotoxicity against human hepatocellular carcinoma cell line (Huh7)
- Format: toxicity, cell-based, Huh-7
- run conditions: Huh7 cells (hepatocellular carcinoma cell line)
readout label: CC50

> print(dat)
                      smiles.representation  value.measured
1  COc1ccc(OC)c(C(=O)c2oc3ccccc3c2NC(=O)CCl)c1         15.5 µM
2  CCNC(=O)NCCSc1nc(-c2ccccc2)c(-c2ccccc2)n1CC        > 100 µM
3  COC(=O)c1sc2nc(CN(C)CC(C)C)ccc2c1NC(=O)c1ccc(C)s1        > 100 µM

###

- System: Plasmodium falciparum
- assay procedure: NOVARTIS: Inhibition of Plasmodium falciparum 3D7 (drug-susceptible) proliferation in erythrocyte-based infection assay
- Format: functional, organism-based
- run conditions: Plasmodium falciparum, 3D7
readout label: EC50

> print(dat)
                                    compound  value.measured
 1  CC(C)CN(CC(O)CN(CCN1CCOCC1)S(=O)(=O)Cc1ccccc1)C(=O)C1CCCN1C(=O)OC(C)(C)C (stereo not given)       > 1130 nM
 2  Cc1cc(C)n(-c2ncc(-c3ccc([N+](=O)[O-])cc3)cn2)n1      > 12500 nM
 3  COc1ccc(-c2cc(C(=O)Nc3cc(Oc4ccc(NC(C)=O)cc4)cc([N+](=O)[O-])c3)c3ccccc3n2)cc1      > 12500 nM
 4  CC(C)(C)CC(C)(C)Nc1c(-c2ccccc2OC(=O)c2ccco2)nc2ccccn12      > 12500 nM
 5  CSC1=C(C#N)C(c2ccc(O)cc2)CC(=O)N1 (stereo not given)       > 9510 nM
 6   Cc1sc2c(c1C)CN(Cc1ccco1)CN2C(=O)c1ccco1      > 12500 nM
 7  O=C(NC1CCN(Cc2ccccc2)CC1)[C@@H](c1ccccc1)N1Cc2ccccc2C1=O      > 12500 nM
 8         O=C(NCCc1ccccc1)C(=O)NN=Cc1ccccc1       > 1250 nM
 9    COc1cc2c(cc1/C=C(/C#N)c1cccc(C)c1)OCO2       > 1060 nM
10      CCCCCCCCOC(=O)NCCCCCCNC(=O)OCCCCCCCC      > 12500 nM
11  O=C(COC(c1ccccc1)c1cccnc1)NCCNC(=O)OCc1ccccc1 (stereo not given)          967 nM
12  CCCCNC(=O)C(CC)Sc1nnc(-c2ccc(C)cc2)c(-c2ccc(C)cc2)n1 (stereo not given)          471 nM
13  CC1=C(C(=O)OC(C)C)C(c2ccc(Br)cc2)C2=C(CC(c3ccc(Cl)cc3)CC2=O)N1 (stereo not given)         1440 nM
14  O=C(Nc1ccc2oc(-c3cccc4ccccc34)nc2c1)c1ccc([N+](=O)[O-])o1         5060 nM
15  O=C(Nc1ccc(Nc2cc([N+](=O)[O-])ccc2O)c2c1C(=O)c1ccccc1C2=O)c1ccccc1       > 1250 nM

###

Entries and their CC50
- assay procedure: NOVARTIS: Cytotoxicity against human hepatocellular carcinoma cell line (Huh7)
- Type: toxicity, cell-based, Huh-7
- run conditions: Huh7 cells (hepatocellular carcinoma cell line)
readout label: CC50

> print(dat)
                                    molecule  value.measured
 1  Cc1ccn2c(NC(C)(C)CC(C)(C)C)c(-c3ccccc3OC(=O)c3cccc(Cl)c3)nc2c1         > 10 µM
 2          CN(C)c1ccc(NC=CC(=O)C(C)(C)C)cc1         36.9 µM
 3  O=[N+]([O-])c1cccc(Cl)c1N1CCN(S(=O)(=O)Cc2ccccc2)CC1         > 10 µM
 4  CCN(CC)c1nc(NN=Cc2cccc([N+](=O)[O-])c2OC)nc(Nc2ccccc2)n1        > 100 µM
 5  CCOC(=O)c1cnc2c(C)cc(Cl)cc2c1Nc1ccc(OC)c(OC)c1       > 11.8 µM
 6              O=C(NN=Cc1ccc(Br)cc1)c1ccco1        > 100 µM
 7            COc1cc2nc(NC(=N)N)nc(C)c2cc1OC         > 10 µM
 8  COc1cccc(-c2ccc(O)c(CNC34CC5CC(CC(C5)C3)C4)c2)n1        > 100 µM
 9  CCCCNC(=O)C1CCC(CN(Cc2c(Cl)cccc2Cl)S(=O)(=O)c2ccc(Br)cc2)CC1 (stereo unspecified)        > 100 µM
10        CCN(CC)c1ccc(NCc2ccc3c(c2)OCO3)cc1         24.6 µM
11  NCCCNC(=O)COC(c1ccccc1)c1cccnc1Cl (stereo unspecified)         > 10 µM
12  O=C(Nc1cc(Cl)cc(Cl)c1)Nc1ccccc1C(=O)NCC1CC1         > 10 µM
13  CCN1c2ccccc2N=C2C=CC(N)=CC21 (stereo unspecified)         > 10 µM
14  Cc1c(NC(=O)C2c3ccccc3C(=O)N3CCc4ccccc4C23)cccc1[N+](=O)[O-] (stereo unspecified)        > 100 µM
15        CC(C)(C)c1ccc2c(c1)CN(C1CCCCC1)CO2         20.8 µM
16  O=C(COC(c1ccccc1)c1c(Cl)cncc1Cl)N1CCC(c2ccccn2)C1 (stereo unspecified)        > 100 µM

###

- Tested on: Plasmodium falciparum
- assay procedure: NOVARTIS: Inhibition of Plasmodium falciparum W2 (drug-resistant) proliferation in erythrocyte-based infection assay
- Format: functional, organism-based
- run conditions: Plasmodium falciparum, W2; read-out: EC50
pEC50: −log10 of the molar value.
Please enter Y where pEC50 is greater than or equal to 6, and N where it is lower.

> print(dat)
                                    compound  category
 1  O=C(CCCn1c(SCc2ccccc2F)nc2ccccc2c1=O)N1CCCC1         N
 2  Cn1nc(C(C)(C)C)cc1C(=O)N1CCCN1C(=O)CNC(=O)c1ccco1         N
 3      Cc1cccc(C)c1NC(=O)N1CCN(C2CCCCC2)CC1         N
 4    Clc1ccc2[nH]c3c(NCCCN4CCOCC4)ncnc3c2c1         Y
 5            Cc1ccc(Nc2nc(-c3ccccn3)cs2)cc1         Y
 6  CCCN(CCC)[P+](CCC)(c1ccc([P+](CCC)(N(CCC)CCC)N(CCC)CCC)cc1)N(CCC)CCC         Y
 7  COc1ccc(-c2c(C(F)(F)F)nn(C)c2NC(=O)Nc2ccc(F)cc2F)cc1         Y
 8  CCC(c1nc2ccccc2c(=O)n1-c1ccccc1OC)N(CCc1ccccc1)C(=O)Nc1ccccc1OC (stereo not given)         Y
 9  Cc1ccc(C#N)c(SCc2nnc(-c3ccc(Cl)cc3)o2)n1         Y
10   Cc1ccc(-c2c[n+](-c3ccccc3)c3n2CCCS3)cc1         N
11  COc1ccc(Nc2nc(Nc3ccc(OC)cc3)c3ccccc3n2)cc1         Y
12  CCCCCc1ccc(OCCCC[n+]2cccc(C)c2C)c(CCCCC)c1         Y
13  CCCn1c(SCCNC(=O)/C=C/c2ccccc2)nc(-c2ccccc2)c1-c1ccccc1         Y
14  Cn1c(=O)c(Cl)c2c3c(c(Cl)ccc31)C(=O)c1ccccc1-2         N
15  CCCCN1C=Nc2cc(C(=O)NCc3ccc(OC)cc3)ccc2C1         Y
16  C=CC1CN2CCC1CC2[C@H](O)c1ccnc2ccc(O)cc12 (stereo not given in full)         N
17  COC(=O)C1=C(C(=O)OC)SC(=C2C(=S)C(C)(C)Nc3cc(C)ccc32)S1         N
18    NC(=O)CN1CC(O)CC1=O (stereo not given)         N
19    CCCCSCC(O)CN1CCCCC1 (stereo not given)         Y
20  COc1ccc(C(=O)N(C)CCCNc2ccnc3cc(Cl)ccc23)cc1         Y
21  O=C1NN(c2ccc(Br)cc2)C(=O)/C1=C\c1c(O)ccc2ccccc12         Y
22       CCN(CC)CCNc1ncnc2c1[nH]c1ccc(F)cc12         Y
23  Cc1ccn2c(NC(C)(C)CC(C)(C)C)c(-c3ccccc3OC(=O)CCCCl)nc2c1         Y
24  C=CC1CN2CCC1C(C(O)c1ccnc3ccc(OC)cc13)C2 (stereo not given)         Y
25  N#Cc1cn(-c2ccc(Cl)cc2)c(=O)n(Cc2c(Cl)cccc2Cl)c1=O         N
26  CCOC(=O)c1c(NC(=O)CSc2nnc(CNC(=O)c3ccc(C)c(C)c3)n2C2CCCCC2)sc2c1CCC2         N
